B1: Osa-1-4 twister ribozyme (parent)
chain: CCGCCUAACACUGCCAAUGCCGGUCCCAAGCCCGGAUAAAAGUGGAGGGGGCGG

Variants of: B1
Assay: self-cleavage, relative activity (ratio to wild type); higher = more cleavage; co-transcriptional
Entry flag: fulfilled if self-cleavage reaches 0.05; not fulfilled if it does not.

Reported self-cleavage reaches at least 0.05 for CCGCCUAACACUGCCAAUGCCGGUCCCAAGCCCGGAUGAAAGUGGAGGGCGCGG [A38G G50C] ? fulfilled

Reported self-cleavage reaches at least 0.05 for CCGCCUAAUACUGCUAAUGCCGGUCCCAAGCCCGGAUAAAAGUGGAGGGGGCGG [C15U C9U] ? fulfilled

Reported self-cleavage reaches at least 0.05 for CCGCCUAACACUGCCAAUGACGGUCCCAAGCCCGGAUAAAAGUGGAGGGGACGG [C20A G51A] ? fulfilled

Reported self-cleavage reaches at least 0.05 for CCGCCUAACACUGUCAAUGCCGGUCCCAAGCCCGGAUAAAAGUGAAGGGGGCGG [C14U G45A] ? not fulfilled

Reported self-cleavage reaches at least 0.05 for CCGCCUAACACUGCCAAUGCCGGUCACAAGCCCGGAUAAAAGUGCAGGGGGCGG [C26A G45C] ? not fulfilled

Reported self-cleavage reaches at least 0.05 for CCGCCUAACACUGCCAAUGCCGGUCCCACGCCCGGAUAAAAGUGGUGGGGGCGG [A29C A46U] ? not fulfilled

Reported self-cleavage reaches at least 0.05 for CCGCCUAACACUGCCAAUGCCGGUCCCAAGCCCGGAUAAAAGUGGAGGCUGCGG [G49C G50U] ? fulfilled

Reported self-cleavage reaches at least 0.05 for CCGCCUAACACUGCCAAUGCCGGUCCAAAGCCCGGAUAAAAGUGAAGGGGGCGG [C27A G45A] ? fulfilled

Reported self-cleavage reaches at least 0.05 for CCGCCUAACAAUGCCAAUGCCGGUCCCAAGCCCGGAUGAAAGUGGAGGGGGCGG [A38G C11A] ? fulfilled
